# Assay Name: compounds binding Alexa647 anti-His antibody – biochemical, small-molecule microarray, 635 nm fluorescence, artefact control for SMM control protein annotation, primary screen (AID 1128);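 further: score merges feature fluorescence with signal-to-noise for each printed compound spot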
# Condition Summary: higher = more signal
Measurement Type: composite z-score

Solved entries:
>>> measured_value("COc1cc(NN2C(C(O)c3ccc(N(C)C)cc3)C=CC3C(=O)N(c4ccccc4)C(=O)C32)cc(OC)c1OC (stereo unspecified)")
0.555
>>> measured_value("CCCCNC(=O)c1ccc(C#CC(C)(C)C)c(OC(C)=O)c1")
0.213
>>> measured_value("C=CCOC(=O)[C@@]1(Cc2ccccc2)C[C@H]2CO[C@H](c3ccc(OC)cc3)N2C1=O")
0.848
>>> measured_value("C[C@@H]1NC(=O)[C@@H](Cc2ccccc2)NC(=O)[C@@]23C(=O)N[C@@H](Cc4ccccc4)C2[C@H](C)[C@@]2(C)O[C@H]2C3/C=C/C/C=C\\CNC1=O (stereo partly specified)")
-0.116
>>> measured_value("COc1ccc(CCNC(=O)[C@@]2(c3ccc([N+](=O)[O-])cc3)CC(=O)N(C3CCCCC3)[C@@H]2c2ccc(CO)cc2)cc1")
1.84

Below is a list of molecules. For each, state its recorded composite z-score.
1. COc1cc(OC)c(C(O)C2C=CC3C(=O)N(Cc4ccccc4)C(=O)C3N2n2cnnc2)cc1Br (stereo unspecified)
2. CCCNC(=O)[C@@H]1c2ccccc2C(=O)N(Cc2ccc(OC(F)(F)F)cc2)[C@H]1c1ccc(CO)cc1

Response line:
1. 2.21
2. 0.0772

Origin of the recorded values: PubChem BioAssay
